# assayTarget: EGFR (Homo sapiens (Human), UniProt P00533)
# Sequence (P00533 672-1210): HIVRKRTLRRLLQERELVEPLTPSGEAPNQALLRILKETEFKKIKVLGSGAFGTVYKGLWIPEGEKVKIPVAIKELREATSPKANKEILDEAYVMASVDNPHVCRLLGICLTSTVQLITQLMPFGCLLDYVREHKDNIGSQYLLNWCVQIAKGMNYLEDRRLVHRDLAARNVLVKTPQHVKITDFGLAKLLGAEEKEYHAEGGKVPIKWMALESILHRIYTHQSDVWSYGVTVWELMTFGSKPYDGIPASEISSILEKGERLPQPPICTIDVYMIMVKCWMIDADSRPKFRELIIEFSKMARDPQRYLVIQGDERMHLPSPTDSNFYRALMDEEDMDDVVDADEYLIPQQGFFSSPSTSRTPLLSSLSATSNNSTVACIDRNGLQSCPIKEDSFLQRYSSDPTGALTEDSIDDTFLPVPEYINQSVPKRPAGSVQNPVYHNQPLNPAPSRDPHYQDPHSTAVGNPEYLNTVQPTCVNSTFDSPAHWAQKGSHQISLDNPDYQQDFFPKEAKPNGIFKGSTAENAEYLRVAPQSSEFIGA
# protocol: EGFR kinase inhibition, luciferase-coupled chemiluminescent assay (LCCA)
# conditionParameters: read-out: EGFR IC50
pIC50: −log10 of the molar value.
assayEndpoint: pIC50

Solved entries:
COc1cc2c(Nc3cc(Cl)c(Cl)cc3F)ncnc2cc1OC[C@@H]1CO[C@H]2[C@@H]1OC[C@@H]2OC :: > 7.30
COc1cc2c(Nc3ccc(Cl)c(Cl)c3)ncnc2cc1OCCN1C(=O)c2ccccc2C1=O :: > 7.30
COc1cc2c(Nc3ccc(Cl)c(Cl)c3)ncnc2cc1OCc1csc(CO)n1 :: > 7.30

Problem: Request the reported pIC50 associated with COc1cc2c(Nc3ccc(Cl)c(Cl)c3)ncnc2cc1OCc1noc(-c2ccc(C(F)(F)F)cc2)n1
Solution: > 7.30

Problem: Request the reported pIC50 associated with COc1cc2c(Nc3cc(C(F)(F)F)ccc3Cl)ncnc2cc1O[C@@H]1CO[C@@H]2[C@H]1OC[C@H]2F
Solution: > 7.30

Problem: Request the reported pIC50 associated with COCCN1CCOC(COc2cc3ncnc(Nc4ccc(Cl)c(Cl)c4)c3cc2OC)C1 (centres unmarked)
Solution: > 7.30

Problem: Request the reported pIC50 associated with COc1cc2c(Nc3ccc(Cl)c(Cl)c3)ncnc2cc1OCc1noc(CN(C)C)n1
Solution: > 7.30

Problem: Request the reported pIC50 associated with COc1cc2c(Nc3ccc(Cl)c(Cl)c3)ncnc2cc1OCc1nc(CN(C)C)no1
Solution: > 7.30

====

# assayTarget: EphB4 (Homo sapiens (Human), UniProt P54760)
# Sequence (P54760 605-890): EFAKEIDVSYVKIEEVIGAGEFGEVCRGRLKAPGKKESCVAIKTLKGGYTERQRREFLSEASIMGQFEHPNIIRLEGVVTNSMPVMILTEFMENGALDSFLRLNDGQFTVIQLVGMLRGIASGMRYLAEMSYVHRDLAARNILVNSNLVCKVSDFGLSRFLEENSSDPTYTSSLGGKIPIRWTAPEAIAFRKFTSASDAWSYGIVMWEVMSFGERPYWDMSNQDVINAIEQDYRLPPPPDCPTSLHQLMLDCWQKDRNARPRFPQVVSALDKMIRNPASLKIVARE
assayEndpoint: IC50

COc1cc2c(Nc3ccc(Cl)c(Cl)c3)ncnc2cc1OCC1CN(C)CCN1C (centres unmarked) :: 50 to 1000 nM

Problem: Request the reported IC50 associated with COc1cc2c(Nc3ccc(Cl)c(Cl)c3)ncnc2cc1OCC1CN(C)CCO1 (centres unmarked)
Solution: 50 to 1000 nM

====

# assayTarget: UniProt P35968
# Sequence (P35968 807-1356): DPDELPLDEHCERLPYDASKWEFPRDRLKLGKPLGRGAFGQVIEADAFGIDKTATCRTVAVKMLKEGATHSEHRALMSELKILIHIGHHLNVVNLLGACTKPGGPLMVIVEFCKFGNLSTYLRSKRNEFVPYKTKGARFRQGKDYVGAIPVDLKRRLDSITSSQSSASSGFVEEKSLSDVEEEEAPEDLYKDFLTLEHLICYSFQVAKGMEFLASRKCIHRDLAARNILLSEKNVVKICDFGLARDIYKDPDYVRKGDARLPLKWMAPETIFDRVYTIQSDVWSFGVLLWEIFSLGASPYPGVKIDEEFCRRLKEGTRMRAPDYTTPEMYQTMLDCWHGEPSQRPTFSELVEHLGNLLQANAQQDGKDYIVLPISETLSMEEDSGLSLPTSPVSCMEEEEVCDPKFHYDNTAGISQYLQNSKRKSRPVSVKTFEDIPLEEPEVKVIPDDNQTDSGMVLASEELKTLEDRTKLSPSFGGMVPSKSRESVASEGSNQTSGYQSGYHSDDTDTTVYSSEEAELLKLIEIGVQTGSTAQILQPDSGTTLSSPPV
# protocol: KDR kinase inhibition, luciferase-coupled chemiluminescent assay (LCCA)
# conditionParameters: read-out: KDR IC50
assayEndpoint: IC50

Solved entries:
COc1cc2c(Nc3cc(Br)cc(C(F)(F)F)c3)ncnc2cc1O[C@@H]1CO[C@@H]2[C@H]1OC[C@H]2F :: < 50 nM
CCN(CC)c1ccc(-c2csc(COc3cc4ncnc(Nc5ccc(Cl)c(Cl)c5)c4cc3OC)n2)cc1 :: < 50 nM
COc1cc2c(Nc3ccc(Cl)c(Cl)c3)ncnc2cc1OCc1cc(Br)cc(Br)c1 :: < 50 nM
COc1cc2c(Nc3ccc(Cl)c(Cl)c3)ncnc2cc1OCc1noc(C2CCCCN2C(=O)OC(C)(C)C)n1 (stereo not shown) :: < 50 nM
COc1cc2c(Nc3ccc(F)c(C(F)(F)F)c3)ncnc2cc1O[C@@H]1CO[C@@H]2[C@H]1OC[C@H]2F :: < 50 nM
COc1cc2c(Nc3ccc(Cl)c(Cl)c3)ncnc2cc1OCc1noc(-c2cccc(C(F)(F)F)c2)n1 :: < 50 nM

Problem: Request the reported IC50 associated with COc1ccc(OC)c(Nc2ncnc3cc(O[C@@H]4CO[C@@H]5[C@H]4OC[C@H]5F)c(OC)cc23)c1
Solution: < 50 nM

Problem: Request the reported IC50 associated with COc1cc2c(Nc3cc(F)c(Br)c(Cl)c3)ncnc2cc1O[C@@H]1CO[C@@H]2[C@H]1OC[C@H]2F
Solution: < 50 nM

Problem: Request the reported IC50 associated with COc1cc2c(Nc3ccc(Cl)c(Cl)c3)ncnc2cc1OCc1nc(-c2ccncc2)cs1
Solution: < 50 nM
